- MEASUREMENT NOTES: physchem
- APPLIED CONDITIONS: organic solvent or mixture, thermodynamic from solid
METRIC: solubility (mM)
Answers are plain numbers, in mM.

(Q) What value of solubility has been reported for the following compound? CC(=O)c1cc[n+](C)cc1 [Compound 10a]
(A) 1600

----------
- MEASUREMENT NOTES: Cyclic voltammetry (CV) of anolyte candidates in a three-electrode cell
- Format: physicochemical
- APPLIED CONDITIONS: MeCN/TBABF4; 0.01M substrate, 0.10M support; 2nd cycle
- Description: The electrochemistry of a series of heteroarenes was evaluated by cyclic voltammetry (CV). Electrochemical analysis was performed in the absence of oxygen and moisture. […] The reversibility of each redox couple in the CV was estimated by calculating the ratio of the diffusion-limited peak-heights of the cathodic (ipc) and anodic (ipa) currents (FIG. 2). The current peak heights were determined from the second CV cycle, and are all reported following deconvolution of the current-potential plot. […]
METRIC: ipc1/ipa1 (100 mV/s)
Answers are plain numbers.

COC(=O)c1ccccn1 [Compound 1a, Methyl picolinate] :: 1.83
CC(C)(C)OC(=O)c1cc[n+]([B-](F)(F)F)cc1 [Compound 5d] :: 1.03

(Q) What value of ipc1/ipa1 (100 mV/s) has been reported for the following molecule? CC(C)(C)OC(=O)c1ccncc1 [Compound 3d]
(A) 1.01

----------
I'd appreciate it if you could supply ipc1/ipa1 (10 mV/s) values for the items below.
- MEASUREMENT NOTES: Cyclic voltammetry (CV) of anolyte candidates in a three-electrode cell
- Type: physicochemical
- APPLIED CONDITIONS: MeCN/TBABF4; 0.01M substrate, 0.10M support; 2nd cycle

Solved cases below.
COC(=O)c1cccnc1 [Compound 2a, methyl nicotinate] :: >5
CN(C)C(=O)c1ccncc1 [Compound 3e] :: >5
N#CCOC(=O)c1ccncc1 [Compound 3f] :: >5

Consider the following items and state reported ipc1/ipa1 (10 mV/s) for each.
1. O=C(OC(C(F)(F)F)C(F)(F)F)c1ccncc1 [Compound 3h]
2. COC(=O)c1ccccn1 [Compound 1a, Methyl picolinate]
3. O=C(OCC(F)(F)F)c1ccncc1 [Compound 3g]

(A)
1: >5; 2: >5; 3: >5

----------
I'd appreciate it if you could supply ipc1/ipa1 (100 mV/s) values for the items below.
- MEASUREMENT NOTES: Cyclic voltammetry (CV) of anolyte candidates in a three-electrode cell
- Assay type: physicochemical
- APPLIED CONDITIONS: MeCN/TBABF4; 0.01M substrate, 0.10M support; 2nd cycle

Solved cases below.
N#CCOC(=O)c1ccncc1 :: >5
O=C(OC(C(F)(F)F)C(F)(F)F)c1ccncc1 :: >5

(Q) What value of ipc1/ipa1 (100 mV/s) has been reported for the following molecule? COC(=O)c1cccnc1 [Compound 2a, methyl nicotinate]
(A) >5
